EC50 by entry:
Biological target: human TSHR (Homo sapiens, UniProt P16473)
Sequence (P16473 21-764): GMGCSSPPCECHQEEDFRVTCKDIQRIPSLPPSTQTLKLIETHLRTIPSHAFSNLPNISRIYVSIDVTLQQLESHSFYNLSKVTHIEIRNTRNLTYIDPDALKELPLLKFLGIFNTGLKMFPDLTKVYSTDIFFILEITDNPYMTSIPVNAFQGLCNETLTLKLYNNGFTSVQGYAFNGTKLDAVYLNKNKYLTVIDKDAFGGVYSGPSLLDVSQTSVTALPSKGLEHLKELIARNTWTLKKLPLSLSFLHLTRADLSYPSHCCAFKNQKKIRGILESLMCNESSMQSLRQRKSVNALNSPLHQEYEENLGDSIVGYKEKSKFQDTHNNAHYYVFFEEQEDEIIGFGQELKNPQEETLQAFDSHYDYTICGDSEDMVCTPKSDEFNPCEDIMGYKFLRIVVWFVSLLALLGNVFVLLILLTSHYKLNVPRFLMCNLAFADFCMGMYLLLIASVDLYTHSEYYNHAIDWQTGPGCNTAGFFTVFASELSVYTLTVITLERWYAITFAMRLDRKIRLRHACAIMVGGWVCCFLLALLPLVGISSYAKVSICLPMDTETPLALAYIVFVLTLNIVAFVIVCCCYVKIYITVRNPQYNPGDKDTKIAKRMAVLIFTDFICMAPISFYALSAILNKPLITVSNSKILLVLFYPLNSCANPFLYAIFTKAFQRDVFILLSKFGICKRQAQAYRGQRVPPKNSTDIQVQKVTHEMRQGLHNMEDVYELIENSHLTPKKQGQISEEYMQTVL
Experiment: Confirmatory cAMP assay, HEK EM 293 cells stably expressing TSHR
Conditions: 1 h incubation, 1 mM IBMX
Numeric only. Scale: nM

Below are worked cases with known answers.
In [3]: df
Out[3]:
                                   compound  numeric_readout
0  COc1ccc(C2Nc3ccccc3C(=O)N2Cc2ccco2)cc1COc1ccc(NC(C)=O)cc1 (centres unmarked)              590
1  COc1ccc(-c2nc3ccccc3c(=O)n2Cc2ccco2)cc1COc1ccc(NC(C)=O)cc1              100
2  COc1ccc(C2Nc3ccccc3C(=O)N2Cc2ccccc2)cc1CSc1ccc(NC(C)=O)cc1 (centres unmarked)               38
3  COc1ccc(C2Nc3ccccc3C(=O)N2Cc2ccccc2)cc1COc1ccc(NC(C)=O)cc1 (centres unmarked)              541

Shifting focus to the compound that follows.
Q: Item COc1ccc(C2Nc3cccc(O)c3C(=O)N2Cc2ccccc2)cc1COc1ccc(NC(C)=O)cc1 (centres unmarked) has what recorded EC50?
Ans: 25

---

Biological target: human TSHR (Homo sapiens, UniProt P16473)
Construct: expressed in transfected cells
Experiment: Homogeneous Time Resolved Fluorescence (HTRF) cAMP assay, TSHR cell line
Assay type: cell-based
Conditions: HTRF cAMP, TSHR cell line, 30 minute incubation; read-out: AC50
ATTRIBUTE_MEASURED: AC50 (µM)
Field format: number, assumed µM, no unit text.

Q: Entry COc1ccc(CN(Cc2ccccc2)C(=O)c2ccccc2)cc1COc1ccc(NC(C)=O)cc1 [Structure 58] has what AC50?
Ans: 8.91

---

Biological target: human TSHR (Homo sapiens)
Construct: expressed in transfected cells
Assay: Homogeneous Time Resolved Fluorescence (HTRF) cAMP assay, TSHR cell line
Type: cell-based
Conditions: 100% activity = response of 30 mU/ml TSH, 0% = DMSO control; in %
ATTRIBUTE_MEASURED: Maximum Activity compared to TSH

# annotated cases, reported Maximum Activity compared to TSH shown
>>> print(df.to_string())
                                   compound                attribute_measured  result
0  COc1ccc(C2Nc3ccccc3C(=O)N2Cc2ccco2)cc1COc1ccc(NC(C)=O)cc1 (stereo not shown) [Structure 19]  Maximum Activity compared to TSH  142.18
1  COc1ccc(C2Nc3ccccc3C(=O)N2Cc2cccc(-c3ccccc3)c2)cc1COc1ccc(NC(C)=O)cc1 (stereo not shown) [Structure 79]  Maximum Activity compared to TSH   61.52
2  COc1ccc(C2Nc3ccccc3C(=O)N2Cc2ccccc2)cc1COc1ccc(NC(C)=O)cc1 (single isomer, unassigned) [Structure 4]  Maximum Activity compared to TSH  171.91
3  COc1ccc(C2Nc3cccc(OC)c3C(=O)N2Cc2ccccc2)cc1COc1ccc(NC(C)=O)cc1 (stereo not shown)  Maximum Activity compared to TSH   28.00

Q: Give its Maximum Activity compared to TSH value. Item: COc1ccc(C2Nc3ccccc3C(=O)N2Cc2ccc(Cl)cc2)cc1COc1ccc(NC(C)=O)cc1 (stereo not shown)
Ans: 68.63

Q: What Maximum Activity compared to TSH value was documented for this compound, COc1ccc(C2Nc3ccccc3C(=O)N2CCc2ccccc2)cc1COc1ccc(NC(C)=O)cc1 (stereo not shown) [Structure 67] ?
Ans: 82.36

Q: Dear colleague, I am looking for the recorded Maximum Activity compared to TSH of the following compound: COc1ccc(C2Nc3ccc(NC(=O)COC(C)=O)cc3C(=O)N2Cc2ccccc2)cc1COc1ccc(NC(C)=O)cc1 (stereo not shown) [Structure 48]
Ans: 106.48
